Values from ChEMBL document CHEMBL1138133

// IC50 lookup, one value per entry
Biological target: Melanin-concentrating hormone receptor 1 (Homo sapiens, UniProt Q99705)
Sequence (Q99705 whole entry): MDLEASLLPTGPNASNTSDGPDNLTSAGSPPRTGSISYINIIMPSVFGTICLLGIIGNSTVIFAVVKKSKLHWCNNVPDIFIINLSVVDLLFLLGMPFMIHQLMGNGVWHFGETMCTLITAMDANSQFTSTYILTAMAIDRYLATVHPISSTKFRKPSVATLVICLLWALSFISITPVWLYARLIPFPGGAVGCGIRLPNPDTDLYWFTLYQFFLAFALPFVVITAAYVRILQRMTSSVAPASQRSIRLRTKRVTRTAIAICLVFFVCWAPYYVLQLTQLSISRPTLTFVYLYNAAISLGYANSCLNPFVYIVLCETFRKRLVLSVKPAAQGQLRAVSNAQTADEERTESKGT
Test: […] human MCH1 receptor expressed in CHO cell by IP3 assay
Type: cell-based
Metric Name: IC50 (nM)

[
  {
    "Smiles Entry": "Cc1cc(N2CCN[C@H](C)C2)nc2ccc(NC(=O)COc3ccc(OC(F)(F)F)cc3)cc12",
    "Test Value": 100
  },
  {
    "Smiles Entry": "Cc1cc(N2CCCN(C)CC2)nc2ccc(NC(=O)COc3ccc(OC(F)(F)F)cc3)cc12",
    "Test Value": 244
  },
  {
    "Smiles Entry": "Cc1cc(NC2CCN(Cc3ccccc3)CC2)nc2ccc(NC(=O)COc3ccc(OC(F)(F)F)cc3)cc12",
    "Test Value": 91
  },
  {
    "Smiles Entry": "Cc1cc(N(C)CCN(C)C)nc2ccc(NC(=O)c3ccc(-c4ccccc4)cc3)cc12",
    "Test Value": 25
  },
  {
    "Smiles Entry": "Cc1cc(N(C)CCN(C)C)nc2ccc(NC(=O)COc3ccc(Cl)cc3)cc12",
    "Test Value": 807
  }
]

====

Biological target: UniProtKB Q99705
Test: Displacement of [125I]MCH from human MCH1 receptor expressed in CHO cell by WC assay
Type: cell-based
Metric Name: IC50 (nM)

[
  {
    "Molecule": "Cc1cc(N2CCCNCC2)nc2ccc(NC(=O)COc3ccc(OC(F)(F)F)cc3)cc12",
    "Test Value": 2
  },
  {
    "Molecule": "Cc1cc(N2C[C@@H](C)NC[C@@H]2C)nc2ccc(NC(=O)COc3ccc(OC(F)(F)F)cc3)cc12 (racemic)",
    "Test Value": 3.4
  },
  {
    "Molecule": "Cc1cc(NC2CCN(Cc3ccccc3)CC2)nc2ccc(NC(=O)COc3ccc(OC(F)(F)F)cc3)cc12",
    "Test Value": 13
  },
  {
    "Molecule": "Cc1cc(N(C)CCN(C)C)nc2ccc(NC(=O)c3ccc(-c4ccc(C(F)(F)F)cc4)cc3)cc12",
    "Test Value": 10
  },
  {
    "Molecule": "Cc1cc(N2CCCN(C)CC2)nc2ccc(NC(=O)COc3ccc(OC(F)(F)F)cc3)cc12",
    "Test Value": 3.7
  },
  {
    "Molecule": "Cc1cc(N(C)CCN(C)C)nc2ccc(NC(=O)c3ccc(-c4ccccc4)cc3)cc12",
    "Test Value": 5.7
  },
  {
    "Molecule": "Cc1cc(N2CCN[C@@H](C)C2)nc2ccc(NC(=O)COc3ccc(OC(F)(F)F)cc3)cc12",
    "Test Value": 3.7
  },
  {
    "Molecule": "Cc1ccc(/C=C/C(=O)Nc2ccc3nc(N(C)CCN(C)C)cc(C)c3c2)cc1",
    "Test Value": 17
  },
  {
    "Molecule": "Cc1cc(NCC(C)(C)CN(C)C)nc2ccc(NC(=O)COc3ccc(OC(F)(F)F)cc3)cc12",
    "Test Value": 4.7
  }
]
